# TEST DETAILS: NCI Yeast Anticancer Drug Screen. Data for the mec2-1 strain (AID 157)
# COND: S. cerevisiae mec2-1 strain, stronger effect = higher value; at 50.0 µM unless noted
About 79,000 compounds went through this panel and 15% of them were active in at least one assay; those are over-represented in the sample as a whole.
Would you kindly list growth inhibition for each of these molecules?
Please respond with the number in % and leave the unit unwritten.

Prompt line: Return reported growth inhibition; argument: COc1ccc(C2=C(Cl)c3cc(OC)c(OC)cc3C2Cl)cc1 (centres undefined)
Response line: 22.6

Prompt line: Return reported growth inhibition; argument: "COc1cc(C(=O)c2cc3c(cc2C(=O)O)OCO3)cc(OC)c1OC"
Response line: 0.85

Prompt line: Return reported growth inhibition; argument: "Cc1cccc(C)c1NC(=O)c1c(Cl)c(Cl)c(Cl)c(Cl)c1C(=O)O"
Response line: 11.8

Prompt line: Return reported growth inhibition; argument: CC1=NCC23CC(=O)C4C(CCC5(C)CC(O)CCC45C)C2CCC13 (centres undefined)
Response line: -0.95

Prompt line: Return reported growth inhibition; argument: "N#Cc1ccc(-c2ccc(C#N)cc2)cc1"
Response line: -23.3

Prompt line: Return reported growth inhibition; argument: "ON=C(c1ccccn1)c1ccccn1"
Response line: -7.6

Prompt line: Return reported growth inhibition; argument: "NC(N)=Nc1ccc(-c2ccc(N=C(N)N)cc2)cc1"
Response line: 6.4

Prompt line: Return reported growth inhibition; argument: "N#Cc1c(-c2ccc(Cl)cc2)c(-c2ccc(Cl)cc2)nn(CCOC(=O)CCC(=O)OCCn2nc(-c3ccc(Cl)cc3)c(-c3ccc(Cl)cc3)c(C#N)c2=O)c1=O"
Response line: 8.95

Prompt line: Return reported growth inhibition; argument: "O=Nc1c(O)c2ccccc2[nH]c1=O"
Response line: 33.6

Prompt line: Return reported growth inhibition; argument: "O=C(O)CC(O)(CC(=O)O)C(=O)O"
Response line: 17.9

Prompt line: Return reported growth inhibition; argument: "OCCc1ccc2ccccc2n1"
Response line: 14.2

Prompt line: Return reported growth inhibition; argument: "Cn1ccnc1Sc1c([N+](=O)[O-])ncn1C"
Response line: 5.95

Prompt line: Return reported growth inhibition; argument: N#CCc1cccc(Cl)c1Cl (tested in a mixture with another compound)
Response line: -15.3

Prompt line: Return reported growth inhibition; argument: "C=C1C(=O)O[C@@H]2O[C@@]3(C)CC[C@H]4[C@H](C)CC[C@@H]1[C@@]24O3"
Response line: 26.9

Prompt line: Return reported growth inhibition; argument: CC(=O)C(C)(CCN(C)C)c1ccccc1 (centres undefined)
Response line: 4.4

Prompt line: Return reported growth inhibition; argument: O=C(c1ccccc1)C(Oc1ccccc1)c1ccccc1 (centres undefined)
Response line: 19.2

Prompt line: Return reported growth inhibition; argument: "CC(=O)NCCc1c[nH]c2ccc(Cl)cc12"
Response line: 21.4

Prompt line: Return reported growth inhibition; argument: "COc1cc(OC)c(NC(=O)C2=C(C)NC(C)=C(C(=O)Nc3cc(Cl)c(OC)cc3OC)C2c2cccc([N+](=O)[O-])c2)cc1Cl"
Response line: 23.9

Prompt line: Return reported growth inhibition; argument: OCC12OCC(C=CC1O)O2 (centres undefined)
Response line: 17.1

Prompt line: Return reported growth inhibition; argument: CCOC(=O)C(C)NC(=O)c1ccccc1 (centres undefined)
Response line: -8.5

Prompt line: Return reported growth inhibition; argument: "CCN(CC)CCNC(=O)c1ccc(I)cc1"
Response line: -14.8

Prompt line: Return reported growth inhibition; argument: CCC(SC(CC)(CC)C(=O)O)C(N)=O (centres undefined)
Response line: 0.05

Prompt line: Return reported growth inhibition; argument: COc1ccc2c(c1)CCN1CCCc3ccccc3C21 (centres undefined)
Response line: 2.75

Prompt line: Return reported growth inhibition; argument: CCOC(=O)CNC(=O)C(CCC(=O)N(C)O)NC(=O)CCC(N)C(=O)O (centres undefined)
Response line: -5.5
